Numbers sourced from ChEMBL document CHEMBL4251709.

- Tested on: HepG2
- method-notes: Antioxidant activity in human HepG2 cells assessed as inhibition of cumene hydroperoxide-mediated lipid peroxidation incubated for 60 mins followed by cumOOH addition for 60 mins measured for 60 mins by C11-BODIPY probe based fluorescence assay
- Type: functional, cell-based
- condition-set: HepG2, 1 h
assay-metric: IC50

{"structure-smiles": "Cc1ccc([C@]2(C)CC[C@@H](C(C)(C)O)O2)cc1O", "assay-target": "HepG2", "IC50": "31 µM"}

Provide the reported IC50 of each entry below, same order.
1. CC(C)=CCC[C@](C)(O)c1ccc(C)cc1
2. O=c1c(O)c(-c2ccc(O)c(O)c2)oc2cc(O)cc(O)c12
3. Cc1ccc([C@]2(C)CC[C@@H](C(C)(C)O)O2)cc1

Response:
1: > 100 µM; 2: 12 µM; 3: > 100 µM
